Origin of the recorded values: patent US7268241B2

molecular target: Glucocorticoid Receptor (Rattus norvegicus); construct: receptors in the cytosol from animal target organs; from tissue; host or cells: thymus cytosol of adrenalectomized rat; experiment: Receptor binding affinity, competitive binding of 3H-Dexamethasone tracer in thymus cytosol; details: relative binding affinity; thymus cytosol of the adrenalectomized rat; tracer 3H-Dexamethasone; reference Dexamethasone = 100%
Sequence (P06536 whole entry): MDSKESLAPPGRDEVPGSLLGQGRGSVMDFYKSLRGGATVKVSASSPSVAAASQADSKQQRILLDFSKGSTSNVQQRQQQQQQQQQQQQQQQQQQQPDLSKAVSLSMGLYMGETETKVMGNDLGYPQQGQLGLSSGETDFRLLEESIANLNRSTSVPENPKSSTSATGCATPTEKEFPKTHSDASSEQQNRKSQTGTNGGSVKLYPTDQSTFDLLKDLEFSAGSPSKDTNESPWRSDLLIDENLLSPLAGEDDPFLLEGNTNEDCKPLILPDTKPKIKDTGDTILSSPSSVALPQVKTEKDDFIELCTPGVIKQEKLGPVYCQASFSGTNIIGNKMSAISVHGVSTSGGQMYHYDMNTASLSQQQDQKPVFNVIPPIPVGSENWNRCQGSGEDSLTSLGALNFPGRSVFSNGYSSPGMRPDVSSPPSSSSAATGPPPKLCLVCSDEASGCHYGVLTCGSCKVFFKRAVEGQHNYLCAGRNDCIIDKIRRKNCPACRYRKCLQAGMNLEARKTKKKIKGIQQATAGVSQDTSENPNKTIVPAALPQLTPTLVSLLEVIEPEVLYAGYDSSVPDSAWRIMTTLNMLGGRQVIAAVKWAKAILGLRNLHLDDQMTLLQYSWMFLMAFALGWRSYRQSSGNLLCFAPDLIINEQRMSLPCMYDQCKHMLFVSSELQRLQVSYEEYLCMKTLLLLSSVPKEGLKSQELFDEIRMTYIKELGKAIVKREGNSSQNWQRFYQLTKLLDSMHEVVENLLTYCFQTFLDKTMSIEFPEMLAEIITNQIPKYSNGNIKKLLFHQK
measurement.label: Glucocorticoid Receptor [Dexamethasone = 100%] (%)

compound: COC[C@]1(OC)CC[C@H]2[C@@H]3CCC4=CC(=O)CCC4=C3[C@@H](c3ccc(/C=N/O)cc3)C[C@@]21C
test.result: 78
//
compound: COCC1(OC)CCC2C3CCC4=CC(=O)CCC4=C3C(c3ccc(C=NO)cc3)CC21C (centres unmarked)
test.result: 52
//
compound: CC12CC(c3ccc(C=NO)cc3)C3=C4CCC(=O)C=C4CCC3C1CCC2(O)COCC(F)(F)F (centres unmarked)
test.result: 94

###

test system: pregnancy in the rat; experiment: Early-abortive action in the rat; assay type: in vivo; conditions: subcutaneous, 5th to 7th day of pregnancy; dose giving complete inhibition of pregnancy

molecule: COCC1(OC)CCC2C3CCC4=CC(=O)CCC4=C3C(c3ccc(C=NO)cc3)CC21C (centres unmarked)
measured.target: pregnancy in the rat
100% Early-abortive Action in the Rat / mg/animal/day: 1.0

molecule: COCC1(O)CCC2C3CCC4=CC(=O)CCC4=C3C(c3ccc(C=NO)cc3)CC21C (stereo not drawn) [4-[17β-Hydroxy-(17α-(methoxymethyl)-3-oxoestra-4,9-dien-11β-]
measured.target: pregnancy in the rat
100% Early-abortive Action in the Rat / mg/animal/day: 1.0

molecule: COC[C@]1(OC)CC[C@H]2[C@@H]3CCC4=CC(=O)CCC4=C3[C@@H](c3ccc(/C=N/O)cc3)C[C@@]21C
measured.target: pregnancy in the rat
100% Early-abortive Action in the Rat / mg/animal/day: 1.0

molecule: CC#C[C@]1(O)CC[C@H]2[C@@H]3CCC4=CC(=O)CCC4=C3[C@@H](c3ccc(N(C)C)cc3)C[C@@]21C [Ru 38 486, reference compound]
measured.target: pregnancy in the rat
100% Early-abortive Action in the Rat / mg/animal/day: 3.0

molecule: CC12CC(c3ccc(C=NO)cc3)C3=C4CCC(=O)C=C4CCC3C1CCC2(O)COCC(F)(F)F (centres unmarked)
measured.target: pregnancy in the rat
100% Early-abortive Action in the Rat / mg/animal/day: 3.0
